Biological target: epithelial sodium channel (ENaC) (Mus musculus, UniProt Q61180+Q9WU38+Q9WU39)
Construct: Mouse kidney M-1 cells were cultivated in DMEM containing 5% FCS and 5 μM dexamethasone; endogenous in cells
Sequence (Q61180 whole entry): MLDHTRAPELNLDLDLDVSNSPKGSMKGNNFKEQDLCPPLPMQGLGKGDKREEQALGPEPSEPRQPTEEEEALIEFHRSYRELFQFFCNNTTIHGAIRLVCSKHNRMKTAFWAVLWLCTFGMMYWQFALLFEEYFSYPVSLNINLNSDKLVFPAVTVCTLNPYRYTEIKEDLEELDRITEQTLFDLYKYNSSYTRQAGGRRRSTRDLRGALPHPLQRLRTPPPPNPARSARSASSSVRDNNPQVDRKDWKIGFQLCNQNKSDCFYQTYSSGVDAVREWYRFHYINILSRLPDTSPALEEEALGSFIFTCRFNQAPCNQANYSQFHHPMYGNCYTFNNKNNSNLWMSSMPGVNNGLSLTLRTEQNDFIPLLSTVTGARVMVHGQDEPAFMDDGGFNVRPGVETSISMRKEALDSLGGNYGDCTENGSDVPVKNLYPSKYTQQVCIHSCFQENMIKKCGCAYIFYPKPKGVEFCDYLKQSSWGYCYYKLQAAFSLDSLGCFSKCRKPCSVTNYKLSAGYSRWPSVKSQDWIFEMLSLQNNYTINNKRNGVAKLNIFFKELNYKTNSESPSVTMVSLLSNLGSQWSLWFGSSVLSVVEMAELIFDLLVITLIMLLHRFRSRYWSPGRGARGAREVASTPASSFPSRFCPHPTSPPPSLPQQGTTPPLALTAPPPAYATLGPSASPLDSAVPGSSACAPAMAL
Sequence (Q9WU38 whole entry): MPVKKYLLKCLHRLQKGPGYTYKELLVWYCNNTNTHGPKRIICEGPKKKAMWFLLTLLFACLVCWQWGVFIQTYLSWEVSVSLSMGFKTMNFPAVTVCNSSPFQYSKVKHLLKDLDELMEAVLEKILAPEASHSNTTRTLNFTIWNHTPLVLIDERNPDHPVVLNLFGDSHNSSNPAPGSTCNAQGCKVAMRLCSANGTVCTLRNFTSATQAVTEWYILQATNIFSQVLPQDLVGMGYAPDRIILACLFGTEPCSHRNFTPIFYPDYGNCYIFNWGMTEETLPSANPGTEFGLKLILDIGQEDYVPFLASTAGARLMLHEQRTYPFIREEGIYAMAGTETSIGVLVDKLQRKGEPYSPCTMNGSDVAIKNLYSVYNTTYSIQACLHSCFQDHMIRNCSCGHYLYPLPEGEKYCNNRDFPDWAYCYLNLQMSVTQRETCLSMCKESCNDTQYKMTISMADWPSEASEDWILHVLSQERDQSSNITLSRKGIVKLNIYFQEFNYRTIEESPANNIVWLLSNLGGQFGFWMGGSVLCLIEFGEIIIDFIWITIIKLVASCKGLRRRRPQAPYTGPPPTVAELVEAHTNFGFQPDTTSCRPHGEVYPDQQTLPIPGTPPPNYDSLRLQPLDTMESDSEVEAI
Sequence (Q9WU39 whole entry): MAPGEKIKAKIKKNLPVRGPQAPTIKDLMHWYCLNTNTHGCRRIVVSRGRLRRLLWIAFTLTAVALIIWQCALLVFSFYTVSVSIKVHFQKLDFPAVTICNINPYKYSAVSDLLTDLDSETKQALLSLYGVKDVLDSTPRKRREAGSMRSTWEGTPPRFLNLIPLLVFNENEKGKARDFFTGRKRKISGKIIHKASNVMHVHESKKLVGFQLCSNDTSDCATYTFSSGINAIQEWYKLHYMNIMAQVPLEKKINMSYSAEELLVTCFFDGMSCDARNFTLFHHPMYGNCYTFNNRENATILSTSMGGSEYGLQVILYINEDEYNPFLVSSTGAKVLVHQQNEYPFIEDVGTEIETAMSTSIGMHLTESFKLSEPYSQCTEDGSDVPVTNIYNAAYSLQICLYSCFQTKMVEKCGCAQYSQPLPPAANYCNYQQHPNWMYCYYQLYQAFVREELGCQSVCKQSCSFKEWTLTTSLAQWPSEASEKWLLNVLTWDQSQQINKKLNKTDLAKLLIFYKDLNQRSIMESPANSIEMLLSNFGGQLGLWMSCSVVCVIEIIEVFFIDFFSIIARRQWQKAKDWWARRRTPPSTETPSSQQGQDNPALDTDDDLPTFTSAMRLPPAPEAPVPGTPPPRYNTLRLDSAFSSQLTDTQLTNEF
Assay: Ussing chamber: inhibition of amiloride sensitive short circuit current (I_sc) in M-1 cells
Details: Mouse kidney M-1 cells on transwell filters, Ussing chamber at 37° C., compound added to the apical solution
For each of the compounds below, state its IC50.
Numbers only, in nM.

Consider the worked cases shown below.
- chemical string: "CN(C)CCNC(=O)N1CCC(CCc2ccccc2)(CNC(N)=NC(=O)c2nc(Cl)c(N)nc2N)CC1"
  unit of measure: "nM"
  IC50: 36
- chemical string: "COc1ccccc1C1(CNC(N)=NC(=O)c2nc(Cl)c(N)nc2N)CCN(C(=O)OC(C)(C)C)CC1"
  unit of measure: "nM"
  IC50: 66
- chemical string: "CC(C)(C)OC(=O)NCCC(=O)N1CCC(CCc2ccccc2)(CNC(N)=NC(=O)c2nc(Cl)c(N)nc2N)CC1"
  unit of measure: "nM"
  IC50: 37

Please give IC50 for each item listed below.
1. CC(C)NC(=O)N1CCC(CNC(N)=NC(=O)c2nc(Cl)c(N)nc2N)(c2ccc3c(c2)OCO3)CC1
2. CN(C)CCN1CCC(CCc2ccccc2)(CNC(N)=NC(=O)c2nc(Cl)c(N)nc2N)CC1
3. CC(C)(C)OC(=O)NCCCNC(=O)N1CCC(CCc2ccccc2)(CNC(N)=NC(=O)c2nc(Cl)c(N)nc2N)CC1
4. C[N+](C)(C)CC(=O)N1CCC(CCc2ccccc2)(CNC(N)=NC(=O)c2nc(Cl)c(N)nc2N)CC1
5. N/C(=N\C(=O)c1nc(Br)c(N)nc1N)NCC1(CCc2ccccc2)CCN(C(=O)CCC(=O)O)CC1

Found:
46
46
10
22
502

Hi team, please reply with IC50 for each item in this list.
1. CN(C)CC(=O)N1CCC(CCc2ccccc2)(CNC(=N)NC(=O)c2nc(Cl)c(N)nc2N)CC1
2. NCCNC(=O)N1CCC(CCc2ccccc2)(CNC(N)=NC(=O)c2nc(Cl)c(N)nc2N)CC1
3. COCC(=O)N1CCC(CCc2ccccc2)(CNC(N)=NC(=O)c2nc(Cl)c(N)nc2N)CC1
4. CCCC(=O)N1CCC(CCc2ccccc2)(CNC(N)=NC(=O)c2nc(Cl)c(N)nc2N)CC1

Found:
[130, 16, 11, 13]
